ASSAY_DETAILS: chemical genetic growth profiling, strain panel (AID 1159580);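 further: tested at 20 µM; growth read once vehicle control cultures reached saturation at 30 °C; 1 = growth at the plate median or of vehicle wells; lower values mean less growth of the strain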
TEST_CONDITIONS: S. cerevisiae deletion strains, growth OD, locus YNR030W, strain Alg12, stronger effect = lower value
Screen size: about 5,500 compounds; about 2,000 (36%) were called active. About 18% were inconclusive and are not listed. The list shows a part of the results.
The label met is reserved for normalized growth strictly under 1; not met covers values equal to or above it.

| COMPOUND | LABEL_VALUE |
| --- | --- |
| Cc1noc(C)c1C(=O)N1CCN(c2ncc(C(F)(F)F)cc2Cl)CC1 | met |
| Cc1noc(C)c1-c1nc(-c2cc(C(F)(F)F)cc(C(F)(F)F)c2)no1 | not met |
| Cc1c(S(=O)(=O)c2ccc(Cl)cc2)cnc2cc(C(C)(C)C)nn12 | not met |
| O=C(Nc1ccc(Br)cc1Cl)C(Cl)(Cl)Cl | met |
| CS/C(N)=N\N=C/c1c(F)cccc1Cl | not met |
| CCOC(=O)c1ccc2[nH]c(-c3ccccc3)cc(=O)c2c1 | not met |
| O=[N+]([O-])c1ccc(S(=O)(=O)c2ccc(Cl)cc2)cc1O | met |
| COC(=O)c1cccc(NC(=O)CC2C(=O)NCCN2C(=O)c2cccs2)c1 (stereo not drawn) | not met |
| O=[N+]([O-])c1cnc(Sc2n[nH]c(-c3cccs3)n2)s1 | met |

* * *

Here, each record is paired with measured normalized growth data.
ASSAY_DETAILS: chemical genetic growth profiling, strain panel (AID 1159580);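 further: tested at 20 µM; growth read once vehicle control cultures reached saturation at 30 °C; 1 = growth at the plate median or of vehicle wells; lower values mean less growth of the strain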
TEST_CONDITIONS: S. cerevisiae deletion strains, growth OD, locus YDR069C, strain doa4, stronger effect = lower value
Among all 5,500 compounds or so, about 2,000 (36%) were called active. Roughly 18% stayed inconclusive and do not appear here. The list shows a part of the results.

| COMPOUND | normalized growth |
| --- | --- |
| O=C(CNC(=O)c1ccc(Cl)cc1)NO | 1.01 |
| OC(CCN1CCCCC1)(c1ccccc1)C1CCCCC1 (stereo unspecified) | 0.948 |
| COc1cc(C(=O)NCCCCCC(=O)O)cc(OC)c1OC | 0.973 |
| N=C(N)SCCN | 0.999 |
| CCOP(=S)(OCC)Oc1nc(Cl)c(Cl)cc1Cl | 0.949 |
| Nc1c2c(nc3ccccc13)CCCC2O (stereo unspecified) | 1 |
| Cc1cn([C@H]2C[C@H](N=[N+]=[N-])[C@@H](CO)O2)c(=O)[nH]c1=O | 1.01 |
| CCOc1ccc2nc3cc(N)ccc3c(N)c2c1 | 0.696 |
| C#C[C@]1(O)CCC2C3CCC4=CC(=O)CC[C@@H]4C3CC[C@@]21C (stereo partly specified) | 0.972 |
| FC(F)(F)c1ccccc1-n1ccnc1 | 0.999 |
| COc1cc(C(=O)O[C@H]2CC[C@@]3(C)[C@@H]4CC[C@H]5[C@]6(O)C[C@H](O)[C@@]7(O)[C@@H](CN8C[C@@H](C)CC[C@H]8[C@@]7(C)O)[C@]6(O)C[C@@]53O[C@]24O)cc(OC)c1OC | 0.998 |

* * *

Here, each record is paired with measured normalized growth data.
ASSAY_DETAILS: chemical genetic growth profiling, strain panel (AID 1159580);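 further: tested at 20 µM; growth read once vehicle control cultures reached saturation at 30 °C; 1 = growth at the plate median or of vehicle wells; lower values mean less growth of the strain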
TEST_CONDITIONS: S. cerevisiae deletion strains, growth OD, locus YFL029C, strain CAK1, stronger effect = lower value
Screen size: about 5,500 compounds; about 2,000 (36%) were called active. Another 18% or so got no clear call; they are omitted. The list shows a part of the results.

| COMPOUND | normalized growth |
| --- | --- |
| Cc1nc(-c2ccccn2)[nH]c(=O)c1Cc1c(Cl)cccc1Cl | 0.957 |
| OC1CCN(c2cc(C(F)(F)F)nc3cc(Cl)cc(Cl)c23)CC1 | 0.984 |
| Fc1ccc(NC(=S)N2CCCN(Cc3ccc(Cl)cc3Cl)CC2)cc1 | 0.979 |
| CCOC(=O)c1cc(CC)sc1NC(=O)c1ccc([N+](=O)[O-])o1 | 0.929 |
| S=C(Nc1ccc(Cl)cc1)SCc1c(Cl)cccc1Cl | 0.974 |
| Nc1ccccc1C(=O)N/N=C\c1cc(Br)ccc1O | 0.971 |
| Cc1nc(-c2ccccn2)nc(N(C)Cc2ccccc2)c1Cl | 0.94 |
| Clc1cc(Cl)cc(-c2nc(SCc3ccc(Cl)cc3Cl)n[nH]2)c1 | 0.995 |
| CCCc1nc(-c2ccccn2)[nH]c(=O)c1CC1CC1 | 0.935 |
| O=C(Nc1ccccc1Sc1ccc([N+](=O)[O-])cc1[N+](=O)[O-])C(Cl)(Cl)Cl | 0.973 |
| CC(C)Cc1ccc(C(C)C(=O)Nc2nn(C)c3ccccc23)cc1 (stereo not drawn) | 0.994 |
| Cc1nc(-c2cccnc2)nc(NCc2ccccc2)c1Cl | 0.941 |
| Cc1nc(-c2ccccn2)nc(SCc2ccccc2)c1Cl | 0.935 |
| O=C(N/N=C\c1cc(Br)ccc1O)c1ccccc1Oc1ccccc1 | 0.953 |
| S=C(NNC(=S)NC1CC2C=CC1C2)Nc1ccc(Br)c(Cl)c1 (stereo not drawn) | 0.982 |
| Brc1ccc2[nH]c3c(c2c1)CCC3 | 0.942 |
| O=C(NCC1COc2ccccc2O1)c1ccc(Cl)cc1 (stereo not drawn) | 0.933 |
| Cc1ccc(C)c(CSc2nc(C3CCCCC3)c(C#N)c(=O)[nH]2)c1 | 0.983 |
| O=[N+]([O-])c1ccc(S(=O)(=O)c2ccccc2)nc1S(=O)(=O)c1ccccc1 | 0.885 |
| Clc1ccc2c(c1)c1ccccc1n2CN1CCOCC1 | 0.917 |
| Cc1ccc(S(=O)(=O)n2c(Sc3ccc([N+](=O)[O-])cc3[N+](=O)[O-])nc3cc(C)ccc32)cc1 | 0.988 |
| C=CCc1c(CCC)nc(-c2ccccn2)[nH]c1=O | 0.92 |
| Nc1ccc(Sc2ccccc2)nc1Sc1ccccc1 | 0.935 |
